List of IC50 values.
Biological target: prolyl endopeptidase (Rattus norvegicus, UniProt O70196)
Construct: prolyl endopeptidase extracted from rat brain; from tissue; host or cells: rat brain
Sequence (O70196 whole entry): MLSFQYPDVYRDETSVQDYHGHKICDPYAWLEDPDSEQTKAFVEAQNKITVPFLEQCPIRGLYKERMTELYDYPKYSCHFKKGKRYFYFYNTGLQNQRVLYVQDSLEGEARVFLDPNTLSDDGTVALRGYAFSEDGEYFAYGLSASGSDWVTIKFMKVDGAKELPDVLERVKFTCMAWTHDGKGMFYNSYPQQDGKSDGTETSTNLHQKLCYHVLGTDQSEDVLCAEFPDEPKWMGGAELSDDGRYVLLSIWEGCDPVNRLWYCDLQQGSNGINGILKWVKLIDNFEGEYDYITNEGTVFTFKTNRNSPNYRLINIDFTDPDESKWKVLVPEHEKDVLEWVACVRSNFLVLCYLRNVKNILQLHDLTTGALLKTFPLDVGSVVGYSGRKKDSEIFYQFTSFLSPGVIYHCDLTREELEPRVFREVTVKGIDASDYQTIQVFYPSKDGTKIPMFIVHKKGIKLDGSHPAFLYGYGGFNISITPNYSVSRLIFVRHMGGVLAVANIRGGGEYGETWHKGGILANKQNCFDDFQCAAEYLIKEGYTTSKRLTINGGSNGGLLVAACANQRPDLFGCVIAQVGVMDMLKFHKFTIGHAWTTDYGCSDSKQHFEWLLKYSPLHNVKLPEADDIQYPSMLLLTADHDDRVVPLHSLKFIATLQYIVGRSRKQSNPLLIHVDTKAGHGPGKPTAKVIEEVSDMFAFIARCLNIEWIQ
Assay: Prolyl endopeptidase-inhibitory activity
Type: biochemical
Conditions: prolyl endopeptidase extracted from rat brain, pH 7.0, 30° C.; read-out: IC50
Source text: Prolyl endopeptidase-inhibitory activity […]

compound	target.or.test.system	IC50, nM
O=C(COc1ccccc1)[C@@H]1CCCN1C(=O)[C@@H]1CCCN1C(=O)NCc1ccc(Cl)cc1	prolyl endopeptidase (Rattus norvegicus, UniProt O70196)	0.6
O=C(C[S@+]([O-])c1ccccc1)[C@@H]1CCCN1C(=O)[C@@H]1CCCN1C(=O)CCc1ccccc1	prolyl endopeptidase (Rattus norvegicus, UniProt O70196)	0.5
COc1ccc(OCC(=O)[C@@H]2CCCN2C(=O)[C@@H]2CCCN2C(=O)COc2ccccc2)cc1	prolyl endopeptidase (Rattus norvegicus, UniProt O70196)	50
CC(C)[S+]([O-])CC(=O)[C@@H]1CCCN1C(=O)[C@@H]1CCCN1C(=O)OCc1ccccc1 (stereo partly shown)	prolyl endopeptidase (Rattus norvegicus, UniProt O70196)	3
O=C(COCc1ccccc1)[C@@H]1CCCN1C(=O)[C@@H]1CCCN1C(=O)NCc1ccccc1	prolyl endopeptidase (Rattus norvegicus, UniProt O70196)	1
COc1ccc(OCC(=O)[C@@H]2CCCN2C(=O)[C@@H]2CCCN2C(=O)OCC23CC4CC(CC(C4)C2)C3)cc1	prolyl endopeptidase (Rattus norvegicus, UniProt O70196)	500
COc1ccc([S@@+]([O-])CC(=O)[C@@H]2CCCN2C(=O)[C@@H]2CCCN2C(=O)OCc2ccccc2)cc1	prolyl endopeptidase (Rattus norvegicus, UniProt O70196)	1.5

---

Target: prolyl endopeptidase (Rattus norvegicus, UniProt O70196)
Construct: prolyl endopeptidase extracted from rat brain; from tissue; host or cells: rat brain
Experiment: Prolyl endopeptidase-inhibitory activity
Format: biochemical
Details: prolyl endopeptidase extracted from rat brain, pH 7.0, 30° C.; read-out: IC50
Overview of recorded IC50 for various compounds

compound	IC50, nM
COc1ccc(OCC(=O)[C@@H]2CCCN2C(=O)[C@@H]2CCCN2C(=O)CNc2ccccc2)cc1	60
COc1ccc([S@@+]([O-])CC(=O)[C@@H]2CCCN2C(=O)[C@@H]2CCCN2C(=O)CCc2ccccc2)cc1	2.5
O=C(COc1ccccc1)[C@@H]1CCCN1C(=O)[C@@H]1CCCN1C(=O)COc1ccccc1	60
O=C(COc1ccc(O)cc1)[C@@H]1CCCN1C(=O)[C@@H]1CCCN1C(=O)CCc1ccccc1	2.5
O=C(C[S+]([O-])c1ccccc1)[C@@H]1CCCN1C(=O)[C@@H]1CCCN1C(=O)OCc1ccccc1 (some centres unmarked)	1.2
COc1ccc(OCC(=O)[C@@H]2CCCN2C(=O)[C@@H]2CCCN2C(=O)NCc2ccccc2)cc1	25
COc1ccc([S@@+]([O-])CC(=O)[C@@H]2CCCN2C(=O)[C@@H]2CCCN2C(=O)NCc2ccccc2)cc1	15
O=C(COc1ccccc1)[C@@H]1CCCN1C(=O)[C@@H]1CCCN1C(=O)NCc1ccccc1	15
O=C(COc1ccccc1)[C@@H]1CCCN1C(=O)[C@@H]1CCCN1C(=O)CCc1ccccc1	15
COc1ccc(CNC(=O)N2CCC[C@H]2C(=O)N2CCC[C@H]2C(=O)C[S@+]([O-])c2ccc(OC)cc2)cc1	0.5
COc1ccc(OCC(=O)[C@@H]2CCCN2C(=O)[C@@H]2CCCN2C(=O)OCc2ccccc2)cc1	1.5
CCCCCCCC(=O)N1CCC[C@H]1C(=O)N1CCC[C@H]1C(=O)COc1ccccc1	4.5
O=C(COc1ccc(F)cc1)[C@@H]1CCCN1C(=O)[C@@H]1CCCN1C(=O)NCc1ccc(F)cc1	0.1
O=C(CSc1ccccc1)[C@@H]1CCCN1C(=O)[C@@H]1CCCN1C(=O)OCc1ccccc1	0.3
COc1ccc(OCC(=O)[C@@H]2CCCN2C(=O)[C@@H]2CCCN2C(=O)CSc2ccccc2)cc1	20
O=C(C[S@@+]([O-])c1ccccc1)[C@@H]1CCCN1C(=O)[C@@H]1CCCN1C(=O)OCc1ccccc1	80
CCOC(=O)[C@@H](NC(=O)N1CCC[C@H]1C(=O)N1CCC[C@H]1C(=O)COc1ccccc1)c1ccccc1	30
O=C(COc1ccccn1)[C@@H]1CCCN1C(=O)[C@@H]1CCCN1C(=O)NCc1ccccc1	200
O=C(COc1ccc(Cl)cc1)[C@@H]1CCCN1C(=O)[C@@H]1CCCN1C(=O)NCc1ccc(Cl)cc1	15
O=C(COc1ccc(Cl)cc1)[C@@H]1CCCN1C(=O)[C@@H]1CCCN1C(=O)CCc1ccccc1	4.5
O=C(COc1ccccc1)[C@@H]1CCCN1C(=O)[C@@H]1CSCN1C(=O)NCc1ccccc1	15
O=C(COc1ccccc1)[C@@H]1CCCN1C(=O)[C@@H]1CCCN1C(=O)OCc1ccccc1	0.3
COc1ccc([S+]([O-])CC(=O)[C@@H]2CCCN2C(=O)[C@@H]2CCCN2C(=O)OCc2ccccc2)cc1 (some centres unmarked)	0.65
Cc1ccc([S@@+]([O-])CC(=O)[C@@H]2CCCN2C(=O)[C@@H]2CCCN2C(=O)CCc2ccccc2)cc1	1.5
Cc1ccc([S@+]([O-])CC(=O)[C@@H]2CCCN2C(=O)[C@@H]2CCCN2C(=O)OCc2ccccc2)cc1	1.5
COc1ccc([S@+]([O-])CC(=O)[C@@H]2CCCN2C(=O)[C@@H]2CCCN2C(=O)OCc2ccccc2)cc1	20
O=C(CS(=O)(=O)c1ccccc1)[C@@H]1CCCN1C(=O)[C@@H]1CCCN1C(=O)OCc1ccccc1	12
O=C(C[S+]([O-])c1ccc([N+](=O)[O-])cc1)[C@@H]1CCCN1C(=O)[C@@H]1CCCN1C(=O)OCc1ccccc1 (some centres unmarked)	1
COc1ccc(CNC(=O)N2CCC[C@H]2C(=O)N2CCC[C@H]2C(=O)COc2ccc(OC)cc2)cc1	2.5
